Where these numbers come from: PubChem BioAssay (NCI)

Attribute: growth
Tested on: TK-10 renal
PROCEDURE SUMMARY: NCI-60 one-dose screen, 48 h (100 = growth as untreated, 0 = no growth, -100 = all killed)
MEASUREMENT SETUP: 10 µM unless noted
Compounds without any hit were thinned out: in the full panel of roughly 83,000, 20% have a hit.

{"columns": ["COMPOUND", "UNITS TEXT", "growth"],
 "data": [
  ["O=c1ccn(C2CC(O)C(O)C(CO)O2)c(=O)[nH]1 (stereo not given)", "%", 121],
  ["O=C(O)COc1ccc(-c2cssc2=S)cc1", "%", 93.9],
  ["CCCCOc1ccc(/C=C2/SC(N3CCOCC3)=NC2=O)cc1OCC", "%", 116],
  ["N#Cc1c(-c2ccccc2)cc(-c2ccccc2)n(CC(=O)NO)c1=O", "%", 73.1],
  ["CN(C)c1nc2c(N)ncnc2n1C1OC(CO)C(O)C1O (stereo not given)", "%", 107],
  ["CCOC(=O)c1ccc2c(c1)nc(-c1ccc(OCc3ccccc3)c(OC)c1)n2-c1cc(C(C)(C)C)[nH]n1", "%", 90.5],
  ["COc1cc(-c2ncn(/C=C\\C(=O)OC(C)C)n2)cc(C(F)(F)F)c1", "%", -8.8],
  ["CCOC(=O)/C(C#N)=C1/C(=O)Nc2ccccc21", "%", 130],
  ["CN1CCN(Cc2ccc(NC(=O)c3cncc(C#Cc4cnc(N)c5cnccc45)c3)cc2C(F)(F)F)CC1", "%", 12.8],
  ["COc1cc(/C=C/C(=O)c2ccc(Nc3ncnc4cc(OC)c(OC)cc34)cc2)cc(OC)c1", "%", 104]
]}

###

Tested on: OVCAR-5 ovarian
PROCEDURE SUMMARY: NCI-60 one-dose screen, 48 h (100 = growth as untreated, 0 = no growth, -100 = all killed)
MEASUREMENT SETUP: 10 µM unless noted
The panel holds about 83,000 compounds, 20% with a hit somewhere; the sample as a whole holds those more often.
QUANTITY KIND: growth (%)

{"columns": ["COMPOUND", "QUANTITY KIND", "UNITS TEXT", "NUMERIC RESULT"],
 "data": [
  ["COc1ccc(OC)c(C2OC(c3ccc4ccccc4c3O)=NN2C(C)=O)c1 (stereo unspecified)", "growth", "%", 102],
  ["COc1ccc(-c2nc(N3CCCC3=O)sc2Br)cc1OC", "growth", "%", 99.2],
  ["CCOC(=O)/C(C#N)=C1/C(=O)Nc2ccccc21", "growth", "%", 104],
  ["OB(O)c1cccc(-c2nc3ccc4[nH]ncc4c3c3c2CCCC3)c1F", "growth", "%", 75.1],
  ["O=C1C(Cl)=C(Nc2ccccn2)C(=O)c2ccccc21", "growth", "%", 115],
  ["Cn1cnc2c(N3CCN(C(=O)OCc4ccc5c(Cl)cc(Cl)c(O)c5n4)CC3)nc(Cl)nc21", "growth", "%", 90.5]
]}

###

Attribute: growth
Test system: TK-10 renal
PROCEDURE SUMMARY: NCI-60 one-dose screen, 48 h (100 = growth as untreated, 0 = no growth, -100 = all killed)
MEASUREMENT SETUP: 10 µM unless noted
This is part of a sample that, as a whole, favours compounds with a hit. Of some 83,000 tested, about 20% had one in any assay.

{"columns": ["COMPOUND", "UNITS TEXT", "growth"],
 "data": [
  ["C=C[C@@H]1C[C@@H]2Cc3c(C)cc(C)cc3N1O2", "%", 92.7],
  ["COc1cc2c(cc1OCCCCCn1c3ccccc3c3ccccc31)N=C[C@@H]1CCCN1C2=O", "%", -37.8],
  ["COc1ccc(Nc2nn3c(C)cc(C)nc3c2C(=O)Nc2ccc(C)cc2)c(OC)c1", "%", 107],
  ["C=C1C(=O)O[C@@H]2[C@@H]3O[C@@](C)(CC/C=C(\\C)CCC[C@@H]2C)[C@H](O)C[C@@H]13", "%", 32],
  ["O=c1[nH]c(NCc2ccccc2)nc2nc(Nc3ccc(NC(=S)Nc4ccccc4)cc3)nc(-c3ccc(O)cc3O)c12", "%", 134],
  ["Cc1ccc(S(=O)(=O)NCCNc2nccc(-c3c(-c4cccc(N)c4)nc4sccn34)n2)cc1", "%", 116],
  ["O=C(Nc1ccc2c(c1)OCCO2)C(=O)c1c[nH]c2ccccc12", "%", 75.1],
  ["CCCCCCCCCCCCNC(=O)[C@H]1CSC(c2cc(Br)cs2)N1 (some centres undefined)", "%", -80.1],
  ["CCN(CC)c1ccc(C(=N)c2ccc(N(CC)CC)cc2)cc1", "%", 10]
]}
